All values here come from ChEMBL document CHEMBL1148447.

PROCEDURE TEXT: Half-life period in rats after intravenous administration at 5 mg/kg
Type: ADME, organism-based
Parameters: dose 5 mg/kg, route intravenous
CONDITION DESCRIPTION: rat, in vivo
PARAMETER MEASURED: half-life (h)
Number only, in h; omit the unit.

Req: Field request: half-life | item: `COc1ccc2c(O[C@@H]3C[C@H]4C(=O)N[C@]5(C(=O)O)C[C@H]5/C=C\CCCCC[C@H](NC(=O)OC5CCCC5)C(=O)N4C3)cc(-c3csc(NC(C)C)n3)nc2c1`
Resp: 1.3

Req: Try this compound next: `COc1ccc2c(O[C@@H]3C[C@H]4C(=O)N[C@]5(C(=O)O)C[C@H]5/C=C\CCCCC[C@H](NC(=O)OC(C)(C)C)C(=O)N4C3)cc(-c3csc(NC(C)=O)n3)nc2c1`
Resp: 0.8

====

PROCEDURE TEXT: Inhibitory concentration against hepatitis C virus NS3 protease
Parameters: species or system Hepacivirus hominis
PARAMETER MEASURED: IC50

Req: Entry under review: `COc1ccc2c(O[C@@H]3C[C@H]4C(=O)N[C@]5(C(=O)O)C[C@H]5/C=C\CCCCC[C@H](NC(=O)OC(C)(C)C)C(=O)N4C3)cc(-n3cnc(C)c3)nc2c1` . Reported IC50?
Resp: 14 nM

Req: Next up: C=C[C@@H]1C[C@]1(NC(=O)C1CC(Oc2cc(-c3ccccc3)nc3ccccc23)CN1C(=O)[C@@H](NC(=O)[C@@H](NC(C)=O)c1ccccc1)C(C)C)C(=O)O (single isomer, unassigned)
Resp: 13 nM

Req: And the next one, `COc1ccc2c(O[C@@H]3C[C@H]4C(=O)N[C@]5(C(=O)O)C[C@H]5/C=C\CCCCC[C@H](NC(=O)OC5CCC5)C(=O)N4C3)cc(-c3csc(NC(C)=O)n3)nc2c1` ?
Resp: 2.8 nM

Req: Quick one: `COc1ccc2c(O[C@@H]3C[C@H]4C(=O)N[C@]5(C(=O)O)C[C@H]5/C=C\CCCCC[C@H](NC(=O)OC5CCCC5)C(=O)N4C3)cc(-c3csc(NC(C)=O)n3)nc2c1`
Resp: 2.5 nM

Req: Check `COc1ccc2c(O[C@@H]3C[C@H]4C(=O)N[C@]5(C(=O)O)C[C@H]5/C=C\CCCCC[C@H](NC(=O)OC(C)(C)C)C(=O)N4C3)cc(-n3ccnc3)nc2c1` too.
Resp: 4.7 nM

Req: Query `COc1ccc2c(O[C@@H]3C[C@H]4C(=O)N[C@]5(C(=O)O)C[C@H]5/C=C\CCCCC[C@H](NC(=O)OC(C)(C)C)C(=O)N4C3)cc(-n3cc(C)cn3)nc2c1` next
Resp: 22 nM

Req: How about this molecule: `CCNc1nc(-c2cc(O[C@@H]3C[C@H]4C(=O)N[C@]5(C(=O)O)C[C@H]5/C=C\CCCCC[C@H](NC(=O)OC5CCCC5)C(=O)N4C3)c3ccc(OC)cc3n2)cs1`
Resp: 2.9 nM

Req: Same question for `COc1ccc2c(O[C@@H]3C[C@H]4C(=O)N[C@]5(C(=O)O)C[C@H]5/C=C\CCCCC[C@H](NC(=O)OC5CCCC5)C(=O)N4C3)cc(-n3ccc(C)n3)nc2c1` please.
Resp: 2.2 nM

Req: Try this molecule next: `CNc1nc(-c2cc(O[C@@H]3C[C@H]4C(=O)N[C@]5(C(=O)O)C[C@H]5/C=C\CCCCC[C@H](NC(=O)OC5CCCC5)C(=O)N4C3)c3ccc(OC)cc3n2)cs1`
Resp: 2.5 nM

Req: Repeat with `COc1ccc2c(O[C@@H]3C[C@H]4C(=O)N[C@]5(C(=O)O)C[C@H]5/C=C\CCCCC[C@H](NC(=O)OC(C)(C)C)C(=O)N4C3)cc(-n3ccc(C)n3)nc2c1`
Resp: 3 nM

Req: Proceed to `COc1ccc2c(O[C@@H]3C[C@H]4C(=O)N[C@]5(C(=O)O)C[C@H]5/C=C\CCCCC[C@H](NC(=O)OC(C)(C)C)C(=O)N4C3)cc(-c3ccccc3)nc2c1`
Resp: 11 nM

Req: Can you check `COc1ccc2c(O[C@@H]3C[C@H]4C(=O)N[C@]5(C(=O)O)C[C@H]5/C=C\CCCCC[C@H](NC(=O)OC(C)(C)C)C(=O)N4C3)cc(-n3cccc3)nc2c1` next?
Resp: 5.1 nM

Req: And the next one, `COc1ccc2c(O[C@@H]3C[C@H]4C(=O)N[C@]5(C(=O)O)C[C@H]5/C=C\CCCCC[C@H](NC(=O)OC(C)(C)C)C(=O)N4C3)cc(-c3nnc(C)o3)nc2c1` ?
Resp: 12 nM

Req: Entry to check: `COc1ccc2c(O[C@@H]3C[C@H]4C(=O)N[C@]5(C(=O)O)C[C@H]5/C=C\CCCCC[C@H](NC(=O)N[C@H](C)C(C)(C)C)C(=O)N4C3)cc(-c3csc(NC(C)=O)n3)nc2c1`
Resp: 1.4 nM

Req: Proceed to `COc1ccc2c(O[C@@H]3C[C@H]4C(=O)N[C@]5(C(=O)O)C[C@H]5/C=C\CCCCC[C@H](NC(=O)OC(C)(C)C)C(=O)N4C3)cc(-c3csc(NC(C)=O)n3)nc2c1`
Resp: 4.8 nM

Req: Now consider `COc1ccc2c(O[C@@H]3C[C@H]4C(=O)N[C@]5(C(=O)O)C[C@H]5/C=C\CCCCC[C@H](NC(=O)OC(C)(C)C)C(=O)N4C3)ccnc2c1` and answer again.
Resp: 24 nM

Req: Further, for `CNc1nc(-c2cc(O[C@@H]3C[C@H]4C(=O)N[C@]5(C(=O)O)C[C@H]5/C=C\CCCCC[C@H](NC(=O)OC(C)(C)C)C(=O)N4C3)c3ccc(OC)cc3n2)cs1` ?
Resp: 6.4 nM

Req: Item: `COc1ccc2c(O[C@@H]3C[C@H]4C(=O)N[C@]5(C(=O)O)C[C@H]5/C=C\CCCCC[C@H](NC(=O)OC5CCCC5)C(=O)N4C3)cc(-c3csc(N)n3)nc2c1`
Resp: 3.5 nM

Req: Next molecule up: `COc1ccc2c(O[C@@H]3C[C@H]4C(=O)N[C@]5(C(=O)O)C[C@H]5/C=C\CCCCC[C@H](NC(=O)OC(C)(C)C)C(=O)N4C3)cc(-n3cccn3)nc2c1`
Resp: 5.5 nM

Req: # repeat for `COc1ccc2c(O[C@@H]3C[C@H]4C(=O)N[C@]5(C(=O)O)C[C@H]5/C=C\CCCCC[C@H](NC(=O)OC(C)(C)C)C(=O)N4C3)cc(-c3csc(N)n3)nc2c1`
Resp: 5.5 nM
